- targetOfAssay: T1, mCerulean3-Bcl-XL (human, UniProt Q07817-1 1-233)
- T1 construct: Bcl-XL, human; GGS linker between mCerulean3 and Bcl-XL; also called ^CBcl-XL; ^cBcl-XL; source: MCF-7 and BMK-DKO, stably transfected clones, in live cells; not shown: mCerulean3, N-terminal, kept
- T1 sequence (Q07817 whole entry): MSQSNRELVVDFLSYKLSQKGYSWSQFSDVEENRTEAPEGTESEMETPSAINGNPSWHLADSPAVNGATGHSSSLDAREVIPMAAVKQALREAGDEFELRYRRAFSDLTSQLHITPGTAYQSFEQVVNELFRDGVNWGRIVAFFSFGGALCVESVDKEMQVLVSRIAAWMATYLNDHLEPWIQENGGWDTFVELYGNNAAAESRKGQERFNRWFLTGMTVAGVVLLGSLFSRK
- procedureText: FRET or BRET; FLIM-FRET in live MCF-7 cells: mCer3-Bcl-XL or mCer3-Bcl-2 stably expressed (donor), Venus-BH3 protein transiently expressed (acceptor); binding curves of FLIM-FRET efficiency against the Venus:mCer3 intensity ratio, 25 C; untreated, DMSO, 20 uM ABT-263 (18-24 h) or 1.25-20 uM A-1155463, A-1331852, ABT-263; R values interpolated at ratio 0.5 (Bcl-XL) or 0.25 (Bcl-2), ^VBad4E signal subtracted
- measurementConditions: partners not purified
R_(ABT-263), % of FRET signal left with 20 uM ABT-263 values for the binders below.
Answer format: numeric, % implied, no suffix.

• Venus-BimEL-L185E (natural protein, mouse, UniProt O54918-1 1-196, looked up, BimEL, mouse; also called ^VBimEL-L185E; ^vBimEL-L185E; source: MCF-7, transiently transfected, in live cells; not shown: Venus, N-terminal, kept) MAKQPSDVSSECDREGGQLQPAERPPQLRPGAPTSLQTEPQGNPDGEGDRCPHGSPQGPLAPPASPGPFATRSPLFIFVRRSSLLSRSSSGYFSFDTDRSPAPMSCDKSTQTPSPPCQAFNHYLSAMASIRQSQEEPEDLRPEIRIAQELRRIGDEFNETYTRRVFANDYREAEDHPQMVILQLERFIFRLVWRRH = 41.9
• Venus-BimEL-I146Y (natural protein, mouse, UniProt O54918-1 1-196, looked up, BimEL, mouse; also called ^vBimEL-I146Y; source: MCF-7, transiently transfected, in live cells; not shown: Venus, N-terminal, kept) MAKQPSDVSSECDREGGQLQPAERPPQLRPGAPTSLQTEPQGNPDGEGDRCPHGSPQGPLAPPASPGPFATRSPLFIFVRRSSLLSRSSSGYFSFDTDRSPAPMSCDKSTQTPSPPCQAFNHYLSAMASIRQSQEEPEDLRPEIRYAQELRRIGDEFNETYTRRVFANDYREAEDHPQMVILQLLRFIFRLVWRRH = 88.7
• Venus-BimEL (natural protein, mouse, UniProt O54918-1 1-196, looked up, BimEL, mouse; GGS linker after Venus; also called ^VBimEL; ^vBimEL; source: MCF-7 and BMK-DKO, transiently transfected, in live cells; not shown: Venus, N-terminal, kept) MAKQPSDVSSECDREGGQLQPAERPPQLRPGAPTSLQTEPQGNPDGEGDRCPHGSPQGPLAPPASPGPFATRSPLFIFVRRSSLLSRSSSGYFSFDTDRSPAPMSCDKSTQTPSPPCQAFNHYLSAMASIRQSQEEPEDLRPEIRIAQELRRIGDEFNETYTRRVFANDYREAEDHPQMVILQLLRFIFRLVWRRH = 86.3
• Venus-BimEL-V192E (natural protein, mouse, UniProt O54918-1 1-196, looked up, BimEL, mouse; also called ^VBimEL-V192E; ^vBimEL-V192E; source: MCF-7, transiently transfected, in live cells; not shown: Venus, N-terminal, kept) MAKQPSDVSSECDREGGQLQPAERPPQLRPGAPTSLQTEPQGNPDGEGDRCPHGSPQGPLAPPASPGPFATRSPLFIFVRRSSLLSRSSSGYFSFDTDRSPAPMSCDKSTQTPSPPCQAFNHYLSAMASIRQSQEEPEDLRPEIRIAQELRRIGDEFNETYTRRVFANDYREAEDHPQMVILQLLRFIFRLEWRRH = 70.1

Query: Reported R_(ABT-263), % of FRET signal left with 20 uM ABT-263, binder Venus-BimEL-I188E (natural protein, mouse, UniProt O54918-1 1-196, looked up, BimEL, mouse; also called ^VBimEL-I188E; ^vBimEL-I188E; source: MCF-7, transiently transfected, in live cells; not shown: Venus, N-terminal, kept) MAKQPSDVSSECDREGGQLQPAERPPQLRPGAPTSLQTEPQGNPDGEGDRCPHGSPQGPLAPPASPGPFATRSPLFIFVRRSSLLSRSSSGYFSFDTDRSPAPMSCDKSTQTPSPPCQAFNHYLSAMASIRQSQEEPEDLRPEIRIAQELRRIGDEFNETYTRRVFANDYREAEDHPQMVILQLLRFEFRLVWRRH : ____
Response: 51

Query: Reported R_(ABT-263), % of FRET signal left with 20 uM ABT-263, binder Venus-BimEL-I181E (natural protein, mouse, UniProt O54918-1 1-196, looked up, BimEL, mouse; also called ^vBimEL-I181E; source: MCF-7, transiently transfected, in live cells; not shown: Venus, N-terminal, kept) MAKQPSDVSSECDREGGQLQPAERPPQLRPGAPTSLQTEPQGNPDGEGDRCPHGSPQGPLAPPASPGPFATRSPLFIFVRRSSLLSRSSSGYFSFDTDRSPAPMSCDKSTQTPSPPCQAFNHYLSAMASIRQSQEEPEDLRPEIRIAQELRRIGDEFNETYTRRVFANDYREAEDHPQMVELQLLRFIFRLVWRRH : ____
Response: 63.9

Query: Reported R_(ABT-263), % of FRET signal left with 20 uM ABT-263, binder Venus-BimEL-I146Y-L185E (natural protein, mouse, UniProt O54918-1 1-196, looked up, BimEL, mouse; also called ^vBimEL-I146Y-L185E; source: MCF-7, transiently transfected, in live cells; not shown: Venus, N-terminal, kept) MAKQPSDVSSECDREGGQLQPAERPPQLRPGAPTSLQTEPQGNPDGEGDRCPHGSPQGPLAPPASPGPFATRSPLFIFVRRSSLLSRSSSGYFSFDTDRSPAPMSCDKSTQTPSPPCQAFNHYLSAMASIRQSQEEPEDLRPEIRYAQELRRIGDEFNETYTRRVFANDYREAEDHPQMVILQLERFIFRLVWRRH : ____
Response: 40
